- Tested on: HeLa
- assay-notes: Proliferation assay (crystal violet), HeLa
- Type: cell-based
- stated-conditions: Homo sapiens, HeLa, 96 h, HeLa cells; 4 days incubation; crystal violet staining; read-out: IC50 inhibition of proliferation, HeLa
recorded-endpoint: IC50 (nM)

As a guide, the following entries are already answered.
# get_value(readout= IC50, system= HeLa) for Cc1nsc(Nc2cnc(C(F)(F)F)cn2)c1C(=O)Nc1ccc(F)c(OC2CCN(CC(F)F)CC2)c1 320

# get_value(readout= IC50, system= HeLa) for Cc1nsc(Nc2cnc(C(F)(F)F)cn2)c1C(=O)Nc1ccc(OCC2CCN(CC(F)(F)F)CC2)nc1 270

# get_value(readout= IC50, system= HeLa) for CCCN1C[C@H](F)[C@H](Oc2ccc(NC(=O)c3c(C)nsc3Nc3cnc(C(F)(F)F)cn3)cn2)C1 260

I = Cc1nsc(Nc2cc(C#N)ccn2)c1C(=O)Nc1ccc(OCCCNCC(F)F)nc1
II = Cc1nsc(Nc2cnc(C(F)(F)F)cn2)c1C(=O)Nc1ccc(OCCNC(=O)OC(C)(C)C)c(F)c1
Between I and II , which one shows the larger IC50 value? Let me know the label of the one you choose. I
(I: 10000 nM, II: 140 nM)

A = Cc1nsc(Nc2cnc3ccccc3n2)c1C(=O)Nc1ccc(NCC2CCN(C(=O)OC(C)(C)C)CC2)nc1
B = Cc1nsc(Nc2cnc(C(F)(F)F)cn2)c1C(=O)Nc1ccc(F)c(O[C@@H]2CCN(CC(F)F)C2)c1
Between A and B , which one shows the larger IC50 value? Let me know the label of the one you choose. A

---

- tgt: CDK2/CycE (Homo sapiens, UniProt P24941)
- Construct: GST
- assay-notes: CDK2/CycE kinase assay (TR-FRET)
- stated-conditions: avg, read-out: CDK2 avg (IC50 [mol/l])
Reported IC50 values for the following molecules.

Requested read-out: IC50. Entry: CNS(=O)(=O)c1ccc(NC(=O)c2c(C)nsc2Nc2cncc(C(F)(F)F)n2)cc1 [Example 211] 15 µM

Requested read-out: IC50. Entry: Cc1nsc(Nc2cnc(C(F)(F)F)cn2)c1C(=O)Nc1ccc(F)c(OCC2CCCN(CC(F)F)C2)c1 (stereo not shown) [Example 334] ≥ 20 µM

Requested read-out: IC50. Entry: Cc1nsc(Nc2cnc(C(F)(F)F)cn2)c1C(=O)Nc1ccc(OC2CCN(CCF)CC2)c(F)c1 [Example 162] > 20 µM

Requested read-out: IC50. Entry: Cc1nsc(Nc2ccc(C#N)cn2)c1C(=O)Nc1ccc(NC2CCCN(C(=O)OC(C)(C)C)C2)nc1 (stereo not shown) [Example 171] > 20 µM

Requested read-out: IC50. Entry: Cc1nsc(Nc2cnc(C(F)(F)F)cn2)c1C(=O)Nc1ccc(F)c(OCC2CCN(C(CF)CF)CC2)c1 [Example 312] ≥ 20 µM

Continuing:
Requested read-out: IC50. Entry: Cc1nsc(Nc2cnc3ccccc3n2)c1C(=O)Nc1ccc(C(=O)N2CCCN(CC(F)(F)F)CC2)cc1 [Example 159] > 20 µM

Requested read-out: IC50. Entry: Cc1nsc(Nc2ccc(C#N)cn2)c1C(=O)Nc1ccc(OC2CCCN(CC(F)(F)F)C2)nc1 (stereo not shown) [Example 40] ≥ 20 µM

---

- Tested on: human cervical tumor cell line HeLa (ATCC CCL-2)
- assay-notes: SAC-Formation - Nocodazole-Induced Assay
- Assay type: cell-based
- stated-conditions: Homo sapiens, HeLa, 24 h, HeLa cells, nocodazole 0.1 μg/ml together with test compound, decrease of mitotic cells (phospho-histone H3 Ser10)
recorded-endpoint: IC50 (µM)

Requested read-out: IC50. Entry: Cc1nsc(Nc2cnc(C(F)(F)F)cn2)c1C(=O)Nc1ccc(OC2CCN(CCF)C2)nc1 (centres unmarked) 0.59

I = Cc1nsc(Nc2cc(C#N)ccn2)c1C(=O)Nc1ccc(Oc2cccc(C(F)(F)F)c2)nc1
II = CCN1CCN(C(=O)c2ccc(NC(=O)c3c(C)nsc3Nc3cnc(C(F)(F)F)cn3)cc2)CC1
III = Cc1nsc(Nc2ccc(C#N)cn2)c1C(=O)Nc1cccc(S(C)(=O)=O)c1
IV = Cc1nsc(Nc2cnc(C(F)(F)F)cn2)c1C(=O)Nc1ccc(O[C@H]2CCN(CC(F)F)C[C@@H]2F)nc1
V = Cc1nsc(Nc2cnc3ccccc3n2)c1C(=O)Nc1ccc(C(=O)O)cc1
Order the items by recorded IC50; the first position goes to the largest value. The response must list the labels following the requested ordering. V, II, III, I, IV
(V: 2.2 µM, II: 1.1 µM, III: 0.16 µM, I: 0.089 µM, IV: 0.0023 µM)

P = CC(=O)Nc1ccccc1NC(=O)c1cccc(NC(=O)c2c(C)nsc2Nc2cnc3ccccc3n2)c1
Q = Cc1nsc(Nc2ccc(C#N)cn2)c1C(=O)Nc1ccc(OC2CCCNC2)nc1 (centres unmarked)
Please indicate which entry, P or Q , has the lower recorded IC50 value. Let me know the label of the one you choose. P
